Tested on: COLO 205 colon
Test: NCI tumour cell line growth inhibition, 48 h; in the data active = GI50 below about 0.43 µM; inactive = the rest
I would appreciate it if you answered using one of these outcomes: active, inactive

As a guide, the following entries are already answered.
[[record]]
molecule = "CNC(C)[C@H]1CCC2C3CCC4C[C@@H](N(C)C(=O)c5ccccc5)CC[C@]4(C)C3CC[C@@]21C (stereo not given in full)"
assayedtarget = "COLO 205 colon"
class = "inactive"

[[record]]
molecule = "c1ccc2c(-c3cnn4cc(-c5ccc(N6CCNCC6)cc5)cnc34)ccnc2c1"
assayedtarget = "COLO 205 colon"
class = "inactive"

[[record]]
molecule = "O=C(O)c1cc2cc(O)ccc2[nH]1"
assayedtarget = "COLO 205 colon"
class = "inactive"

[[record]]
molecule = "CCOc1ccc2c(c1)C(=O)c1c-2n(CCCN)c(=O)c2cc([N+](=O)[O-])ccc12"
assayedtarget = "COLO 205 colon"
class = "active"


Attention now shifts to the item below.
Query :: Kindly provide the recorded test outcome for the following molecule: COc1ccc(C2SCC(=O)N2NC(=O)C(O)c2ccccc2)cc1 (stereo not given)
Result :: inactive

* * *

Give TGI for every item shown.
Tested on: KM20L2 colon
Assay: NCI tumour cell line growth inhibition, 48 h

[[record]]
compound = "C=C[Si](C)(C)COC(=O)/C(C#N)=C/C=C/c1ccccc1"
assayedtarget = "KM20L2 colon"
recordedresult = "> 100 µM"

[[record]]
compound = "C[N+]1(C)C/C(=C\\c2ccc(O)cc2)C(=O)/C(=C/c2ccc(O)cc2)C1"
assayedtarget = "KM20L2 colon"
recordedresult = "> 100 µM"

[[record]]
compound = "CN(C)CCC(/C=C/c1ccccc1)=N\\Nc1ccc(Cl)cc1"
assayedtarget = "KM20L2 colon"
recordedresult = "3.62 µM"


// each compound listed below needs its TGI
1. CCOC(=O)C1=C(c2ccccc2)NC(c2ccccc2)=C(C(=O)OCC)c2c1c(=O)cc[nH]c2=O
2. C=CCN(N=O)C(=O)N(CCCCC(NC(C)=O)C(=O)NCc1ccccc1)Cc1ccccc1 (stereo not drawn)

Result ::
1. > 100 µM
2. 36.7 µM

* * *

System: SF-539 CNS
Test: NCI tumour cell line growth inhibition, 48 h
propertyMeasured: TGI (µM)
Answers are plain numbers, in µM.

[[record]]
compound = "O=C1O/C(=C\\C=C\\CO)C=C1/C=C/CO"
assayedtarget = "SF-539 CNS"
propertymeasured = "TGI"
recordedresult = 55


Please give TGI for each item listed below.
1. CC(=O)C(N=NC1CCC(S(=O)(=O)NB2N=CS2)CC1)C(=O)Nc1ccccc1C (stereo unspecified)
2. O=[N+]([O-])c1ccc2nc3ccscc-3c2c1
3. Brc1ccc(N=Nc2ccc3ccccc3n2)cc1
4. COC1C(O)CC(OC2CC(OC3CC(O[C@@H]4C(=O)c5c(cc6cc(OC7CC(OC8CC(O)C(O)C(C)O8)C(O)C(C)O7)c(C)c(O)c6c5O)C[C@H]4[C@H](OC)C(=O)[C@@H](O)[C@@H](C)O)OC(C)C3O)OC(C)C2O)OC1C (stereo partly specified)
5. C[C@@H]1CC[C@@H]2[C@@H]1[C@H](OC(=O)c1ccc3ccccc3c1)[C@]1(C3CCCCC3)C[C@@H](OC(=O)CO)[C@@]2(C)O1
6. Oc1cc2c(cc1C(c1ccc3c(c1)OCO3)N1CCN(C(c3ccc4c(c3)OCO4)c3cc4c(cc3O)OCO4)CC1)OCO2 (stereo unspecified)

Result ::
[32.4, 50.4, 55.2, 0.0312, 27.9, 33.9]
